assay: inhibitors of hydroxyurea-induced Chk1 phosphorylation, primary screen, imaging, HeLa, phospho-Chk1 antibody, percent positive cells (AID 1186); settings: hydroxyurea-induced phospho-Chk1 immunofluorescence imaging, higher = more signal
Bucketed by reported z-score, buckets being Low = under 0.05, Mid = from 0.05 up to 0.4, High = 0.4 and over

Here's what some known entries look like.
>  <compound>
C=CCC(OC(C)=O)[C@@H]1[C@@H](N(Cc2ccc(-c3cccc(C(F)(F)F)c3)o2)C(=O)c2ccc(C)cc2)c2cc(OCCCO)ccc2N1C(=O)Cc1ccc(OC)cc1 (some centres undefined)

>  <answer_label>
Low

$$$$
>  <compound>
COCCOC(=O)N1C(=O)[C@@]2(c3cc(C#CCNC(N)=O)ccc31)[C@H](c1ccc(OCCO)cc1)N1[C@H](c3ccccc3)[C@H](c3ccccc3)OC(=O)[C@H]1[C@@H]2C(N)=O

>  <answer_label>
Mid

$$$$
>  <compound>
CCOC(=O)C1=CCC(c2ccccc2)N(S(=O)(=O)c2ccc([N+](=O)[O-])cc2)C1 (centres undefined)

>  <answer_label>
Mid

$$$$
>  <compound>
Cc1ccc(F)cc1S(=O)(=O)N[C@@H]1CCN(Cc2cccc3[nH]ccc23)C1

>  <answer_label>
Low

$$$$
>  <compound>
O=C1C2C=CC(C(O)c3cccc(O)c3)N(Nc3ccccc3)C2C(=O)N1c1ccccc1 (centres undefined)

>  <answer_label>
Mid

$$$$

Let's switch to this compound now.
For the record C=C[C@@H](OC)[C@H](OC(=O)Nc1ccc(OC)cc1)c1ccc(OC)c(O)c1 , report the class its z-score corresponds to. High

Reference for the values: PubChem BioAssay
